- Target Of Assay: Serine protease 1 (Bos taurus, UniProt P00760)
- Sequence (P00760 whole entry): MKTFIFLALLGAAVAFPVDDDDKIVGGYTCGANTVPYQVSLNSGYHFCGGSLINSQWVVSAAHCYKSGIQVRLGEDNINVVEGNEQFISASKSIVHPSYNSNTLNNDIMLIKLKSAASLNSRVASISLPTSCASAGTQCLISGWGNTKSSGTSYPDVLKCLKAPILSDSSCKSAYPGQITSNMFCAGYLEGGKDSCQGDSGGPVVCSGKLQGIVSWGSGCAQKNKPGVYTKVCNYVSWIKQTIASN
Square brackets hold non-standard residues; d marks the D form. Peptide text beside a SMILES is read from it. * marks the point of attachment. Tic = O=C(O)[C@@H]1Cc2ccccc2CN1; dPhg = N[C@@H](C(=O)O)c1ccccc1; Boc = CC(C)(C)OC(=O)*
Reported pIC50 values are given for each entry in this list.
// returns pIC50 (minus log10 of molar concentration), number only

Past entries and their recorded results:
[[record]]
molecule = "CC(C)(C)OC(=O)N[C@@H](C(=O)N1CCC[C@H]1C(=O)N[C@H](C=O)CCCN=C(N)N)c1ccccc1 (Boc-[dPhg]-Pro-Arg-aldehyde)"
measured_result = 8.01

[[record]]
molecule = "N=C(N)NCCC[C@@H](C=O)NC(=O)[C@@H]1CCCN1C(=O)[C@@H]1Cc2ccccc2CN1 (H-[Tic]-Pro-Arg-aldehyde)"
measured_result = 7.64

[[record]]
molecule = "CC(C)(C)OC(=O)N[C@H](Cc1ccccc1)C(=O)N1CCC[C@H]1C(=O)N[C@H](C=O)CCCN=C(N)N"
measured_result = 7.85


Please find the next molecule below.
# pIC50 of "CN[C@@H](Cc1ccccc1)C(=O)N1CCC[C@H]1C(=O)N[C@](C)(C=O)CCCN=C(N)N" = 3.62

* * *

Reported pIC50 values are given for each entry in this list.
- Target Of Assay: Serine protease 1 (Bos taurus)
- Sequence (P00760 whole entry): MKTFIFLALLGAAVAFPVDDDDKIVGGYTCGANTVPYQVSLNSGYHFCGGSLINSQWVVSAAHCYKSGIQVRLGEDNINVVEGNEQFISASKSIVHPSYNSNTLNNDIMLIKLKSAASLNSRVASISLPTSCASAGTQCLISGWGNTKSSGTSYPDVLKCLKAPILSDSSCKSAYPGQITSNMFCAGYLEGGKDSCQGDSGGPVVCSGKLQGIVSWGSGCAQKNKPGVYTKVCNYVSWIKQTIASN
// returns pIC50 (minus log10 of molar concentration), number only

[[record]]
compound = "CC(C)(C)OC(=O)NC(Cc1ccccc1)C(=O)N1CSCC1C(=O)N[C@H](C=O)CCCN=C(N)N (stereo in doubt)"
quantity = "pIC50"
measured_result = 8.06

[[record]]
compound = "C[C@](NC(=O)C(F)(F)F)(C(=O)N1CCC[C@H]1C(=O)N[C@H](C=O)CCCN=C(N)N)c1ccccc1"
quantity = "pIC50"
measured_result = 6.74

[[record]]
compound = "C[C@](NC(=O)C(F)(F)F)(C(=O)N1CC[C@H]1C(=O)N[C@H](C=O)CCCN=C(N)N)c1ccccc1"
quantity = "pIC50"
measured_result = 8.02

[[record]]
compound = "CC(C)(C)OC(=O)NC(Cc1ccccc1)C(=O)N1C(C(=O)N[C@H](C=O)CCCN=C(N)N)CCC1(C)C (stereo in doubt)"
quantity = "pIC50"
measured_result = 6.77


Noted pIC50 for "N=C(N)NCCC[C@@H](C=O)NC(=O)[C@@H]1CCCN1C(=O)[C@@H]1NCC[C@@H]2CCCC[C@@H]21" , tested on Serine protease 1 (Bos taurus): 7.28

Noted pIC50 for "N=C(N)NCCC[C@@H](C=O)NC(=O)[C@@H]1CCCN1C(=O)[C@@H]1C[C@@H]2CCCC[C@@H]2CN1" , tested on Serine protease 1 (Bos taurus): 8.04

Noted pIC50 for "CC(C)(C)OC(=O)N[C@H](Cc1ccccc1)C(=O)N1CC[C@H]1C(=O)N[C@H](C=O)CCCNC(=N)N" , tested on Serine protease 1 (Bos taurus): 8.01

* * *

- Experiment Description: Ratio of IC50 towards Plasmin to thrombin
Square brackets hold non-standard residues; d marks the D form. Peptide text beside a SMILES is read from it. * marks the point of attachment. dPhg = N[C@@H](C(=O)O)c1ccccc1; Boc = CC(C)(C)OC(=O)*
Quantity: Selectivity
Keep it simple and answer with nothing but the number.

[[record]]
compound = "CC(C)(C)OC(=O)NC(Cc1ccccc1)C(=O)N1CC[C@H]1C(=O)N[C@@H](CCCN=C(N)N)C(=O)O (stereo in doubt)"
measured_result = 20

[[record]]
compound = "CC(C)(C)OC(=O)N[C@@H](Cc1ccccc1)C(=O)N1CCCC[C@H]1C(=O)N[C@H](C=O)CCCN=C(N)N"
measured_result = 5

[[record]]
compound = "CN[C@@H](Cc1ccccc1)C(=O)N1CCC[C@H]1C(=O)N[C@](C)(C=O)CCCN=C(N)N"
measured_result = 850

[[record]]
compound = "CC(C)(C)OC(=O)N[C@H](Cc1ccccc1)C(=O)N1CCC[C@H]1C(=O)N[C@H](C=O)CCCN=C(N)N"
measured_result = 4

[[record]]
compound = "CC(=O)N[C@@](C)(C(=O)N1CC[C@H]1C(=O)N[C@H](C=O)CCCN=C(N)N)c1ccccc1"
measured_result = 400

[[record]]
compound = "C[C@](NC(=O)C(F)(F)F)(C(=O)N1CCC[C@H]1C(=O)N[C@H](C=O)CCCN=C(N)N)c1ccccc1"
measured_result = 700

[[record]]
compound = "CC(C)(C)OC(=O)NC(Cc1ccccc1)C(=O)N1C(C(=O)N[C@H](C=O)CCCN=C(N)N)CCC1(C)C (stereo in doubt)"
measured_result = 38

[[record]]
compound = "N=C(N)NCCC[C@@H](C=O)NC(=O)[C@@H]1CCCN1C(=O)[C@@H]1NCC[C@@H]2CCCC[C@@H]21"
measured_result = 40

[[record]]
compound = "N=C(N)NCCC[C@@H](C=O)NC(=O)[C@@H]1CCCN1C(=O)[C@@H]1C[C@@H]2CCCC[C@@H]2CN1"
measured_result = 5

[[record]]
compound = "C[C@](NC(=O)C(F)(F)F)(C(=O)N1CC[C@H]1C(=O)N[C@H](C=O)CCCN=C(N)N)c1ccccc1"
measured_result = 510


# Selectivity of CC(C)(C)OC(=O)NC(Cc1ccccc1)C(=O)N1CSCC1C(=O)N[C@H](C=O)CCCN=C(N)N (stereo in doubt) = 4

# Selectivity of "CC(C)(C)OC(=O)N[C@@](C)(C(=O)N1CC[C@H]1C(=O)N[C@H](C=O)CCCN=C(N)N)c1ccccc1" = 180

# Selectivity of CC(C)(C)OC(=O)N[C@@H](C(=O)N1CCC[C@H]1C(=O)N[C@H](C=O)CCCN=C(N)N)c1ccccc1 (Boc-[dPhg]-Pro-Arg-aldehyde) = 6

# Selectivity of "CN[C@H](Cc1ccccc1)C(=O)N1CCC[C@H]1C(=O)N[C@H](C=O)CCCNC(=N)N" = 80

* * *

Reported pIC50 values are given for each entry in this list.
- Target Of Assay: Tissue-type plasminogen activator (Homo sapiens)
- Sequence (P00750 whole entry): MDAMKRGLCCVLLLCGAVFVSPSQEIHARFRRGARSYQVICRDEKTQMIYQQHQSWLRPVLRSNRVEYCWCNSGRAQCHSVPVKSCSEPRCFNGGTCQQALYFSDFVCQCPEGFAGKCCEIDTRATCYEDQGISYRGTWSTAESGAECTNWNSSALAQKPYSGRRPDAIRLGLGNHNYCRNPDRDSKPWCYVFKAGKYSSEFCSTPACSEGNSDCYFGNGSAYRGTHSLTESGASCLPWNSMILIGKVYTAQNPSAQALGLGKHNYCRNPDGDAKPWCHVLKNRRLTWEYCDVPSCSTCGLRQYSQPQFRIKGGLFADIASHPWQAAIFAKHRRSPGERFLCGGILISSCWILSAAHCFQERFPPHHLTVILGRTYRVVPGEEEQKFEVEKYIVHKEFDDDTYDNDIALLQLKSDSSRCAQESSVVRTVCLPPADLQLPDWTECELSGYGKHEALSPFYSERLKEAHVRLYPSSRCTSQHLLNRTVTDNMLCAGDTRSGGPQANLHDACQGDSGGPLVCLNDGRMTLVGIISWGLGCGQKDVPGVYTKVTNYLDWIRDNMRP
Square brackets hold non-standard residues; d marks the D form. Peptide text beside a SMILES is read from it. * marks the point of attachment. dPhg = N[C@@H](C(=O)O)c1ccccc1; Boc = CC(C)(C)OC(=O)*
// returns pIC50 (minus log10 of molar concentration), number only

Past entries and their recorded results:
[[record]]
compound = "CC(=O)N[C@@](C)(C(=O)N1CC[C@H]1C(=O)N[C@H](C=O)CCCNC(=N)N)c1ccccc1"
quantity = "pIC50"
measured_result = 3.60

[[record]]
compound = "CC(C)(C)OC(=O)N[C@H](Cc1ccccc1)C(=O)N1CCC[C@H]1C(=O)N[C@H](C=O)CCCN=C(N)N"
quantity = "pIC50"
measured_result = 6.02


Please find the next compound below.
# pIC50 of CC(C)(C)OC(=O)N[C@@H](C(=O)N1CCC[C@H]1C(=O)N[C@H](C=O)CCCN=C(N)N)c1ccccc1 (Boc-[dPhg]-Pro-Arg-aldehyde) = 5.06

* * *

- Experiment Description: Ratio of IC50 towards Tissue Plasminogen activator to thrombin
Would you mind labelling by Selectivity? At or over 2000 is Yes, under is No.

Study these solved cases before continuing.
[[record]]
compound = "CC(=O)N[C@@](C)(C(=O)N1CC[C@H]1C(=O)N[C@H](C=O)CCCN=C(N)N)c1ccccc1"
group = "Yes"

[[record]]
compound = "CC(C)(C)OC(=O)N[C@@H](Cc1ccccc1)C(=O)N1CCCC[C@H]1C(=O)N[C@H](C=O)CCCN=C(N)N"
group = "No"

[[record]]
compound = "CC(C)(C)OC(=O)NC(Cc1ccccc1)C(=O)N1CC[C@H]1C(=O)N[C@@H](CCCN=C(N)N)C(=O)O (stereo in doubt)"
group = "No"

[[record]]
compound = "CC(C)(C)OC(=O)NC(Cc1ccccc1)C(=O)N1CSCC1C(=O)N[C@H](C=O)CCCN=C(N)N (stereo in doubt)"
group = "No"

[[record]]
compound = "N=C(N)NCCC[C@@H](C=O)NC(=O)[C@@H]1CCCN1C(=O)[C@@H]1NCC[C@@H]2CCCC[C@@H]21"
group = "No"


q: Reported Selectivity reaches at least 2000 for "C[C@](NC(=O)C(F)(F)F)(C(=O)N1CC[C@H]1C(=O)N[C@H](C=O)CCCN=C(N)N)c1ccccc1" ?
a: Yes

q: Reported Selectivity reaches at least 2000 for CC(C)(C)OC(=O)NC(Cc1ccccc1)C(=O)N1C(C(=O)N[C@H](C=O)CCCN=C(N)N)CCC1(C)C (stereo in doubt) ?
a: Yes
